assay: Metabolic stability in human liver microsomes assessed as parent compound remaining after 10 mins by LC-MS/MS analysis; assay type: ADME, microsome; conditions: read-out: Stability
# note: boundary value 50% maps to criterion not met; remaining at 10 min below it maps to criterion met

Chem Smiles	Class Name
C[C@@H]1CN(c2cccc3c2C[C@H](CN(C)[C@H]2CCCc4cccnc42)NC3)C[C@H](C)N1C	criterion met
CN(C[C@H]1Cc2c(cccc2N2CCNC(C)(C)C2)CN1)[C@H]1CCCc2cccnc21	criterion not met
CN(C[C@H]1Cc2c(cccc2N2CCN3CCC[C@@H]3C2)CN1)[C@H]1CCCc2cccnc21	criterion not met
CC(C)N(C[C@H]1Cc2c(cccc2N2CCNCC2)CN1)[C@H]1CCCc2cccnc21	criterion not met
CCN(C[C@H]1Cc2c(cccc2N2CCNCC2)CN1)[C@H]1CCCc2cccnc21	criterion not met

---

assay: Metabolic stability in human liver microsomes assessed as parent compound remaining after 10 mins by LC-MS/MS analysis; format: ADME, microsome; conditions: read-out: Stability
Listed compounds paired with reported remaining at 10 min

Chem Smiles	remaining at 10 min
CC(C)N1CCN(c2cccc3c2C[C@H](CN(C)[C@H]2CCCc4cccnc42)NC3)CC1	56.6%
CN1CCN(c2cccc3c2C[C@H](CN(C)[C@H]2CCCc4cccnc42)NC3)CC1	75.8%
COCCN(C[C@H]1Cc2c(cccc2N2CCNCC2)CN1)[C@H]1CCCc2cccnc21	90.3%
FC1(F)CCC(CN(C[C@H]2Cc3c(cccc3N3CCNCC3)CN2)[C@H]2CCCc3cccnc32)CC1	68.6%
CN(C[C@H]1Cc2c(cccc2N2CCN(c3ncccn3)CC2)CN1)[C@H]1CCCc2cccnc21	35.5%
OCCN(C[C@H]1Cc2c(cccc2N2CCNCC2)CN1)[C@H]1CCCc2cccnc21	94.4%
Cc1ccc(CN(C)C[C@H]2Cc3c(cccc3N3CCNCC3)CN2)nc1	76.8%
CN(C[C@H]1Cc2c(cccc2N2CCN(c3ccccn3)CC2)CN1)[C@H]1CCCc2cccnc21	27.4%
CN1Cc2cccc(N3CCNCC3)c2C[C@@H]1CN(C)[C@H]1CCCc2cccnc21	100%

---

Listed compounds paired with reported pIC50
molecular target: Cytochrome P450 2D6 (Homo sapiens, UniProt P10635); assay: Inhibition of recombinant human CYP2D6 expressed in insect cells microsomes using AMMC as substrate preincubated for 30 mins followed by NADP addition and measured after 45 mins by fluorescence analysis
Sequence (P10635 whole entry): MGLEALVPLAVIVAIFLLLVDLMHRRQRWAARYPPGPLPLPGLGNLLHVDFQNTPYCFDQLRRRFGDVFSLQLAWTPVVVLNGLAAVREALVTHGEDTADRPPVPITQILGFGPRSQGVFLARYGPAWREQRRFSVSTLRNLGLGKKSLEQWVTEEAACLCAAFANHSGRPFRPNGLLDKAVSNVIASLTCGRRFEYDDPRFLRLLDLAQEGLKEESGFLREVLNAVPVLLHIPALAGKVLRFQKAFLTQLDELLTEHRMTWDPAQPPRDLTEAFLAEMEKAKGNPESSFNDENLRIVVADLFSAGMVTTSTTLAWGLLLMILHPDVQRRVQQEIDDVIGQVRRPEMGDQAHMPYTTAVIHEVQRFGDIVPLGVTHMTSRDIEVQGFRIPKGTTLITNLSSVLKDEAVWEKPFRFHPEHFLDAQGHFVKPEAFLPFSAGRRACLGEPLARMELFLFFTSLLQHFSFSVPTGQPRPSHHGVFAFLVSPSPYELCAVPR
pIC50: −log10 of the molar value.

Chem Smiles	Assayed Target	Result Comparator	pIC50
COCCN(C[C@H]1Cc2c(cccc2N2CCNCC2)CN1)[C@H]1CCCc2cccnc21	Cytochrome P450 2D6 (Homo sapiens, UniProt P10635)	=	4.85
CN(C[C@H]1Cc2c(cccc2N2CCN(c3cccc(C(F)(F)F)c3)CC2)CN1)[C@H]1CCCc2cccnc21	Cytochrome P450 2D6 (Homo sapiens, UniProt P10635)	=	5.19
CN1CCN(c2cccc3c2C[C@H](CN(C)[C@H]2CCCc4cccnc42)NC3)CC1	Cytochrome P450 2D6 (Homo sapiens, UniProt P10635)	<	4.70
CCN(C[C@H]1Cc2c(cccc2N2CCNCC2)CN1)[C@H]1CCCc2cccnc21	Cytochrome P450 2D6 (Homo sapiens, UniProt P10635)	<	4.70
CN(C[C@H]1Cc2c(cccc2N2CCN(C3COC3)CC2)CN1)[C@H]1CCCc2cccnc21	Cytochrome P450 2D6 (Homo sapiens, UniProt P10635)	<	4.70
Cc1cccnc1CN(C)C[C@H]1Cc2c(cccc2N2CCNCC2)CN1	Cytochrome P450 2D6 (Homo sapiens, UniProt P10635)	=	4.00
c1cnc2c(c1)CCC[C@@H]2N(CC1CCCCC1)C[C@H]1Cc2c(cccc2N2CCNCC2)CN1	Cytochrome P450 2D6 (Homo sapiens, UniProt P10635)	=	5.24
CN(C[C@H]1Cc2c(cccc2N2CCN3CCC[C@@H]3C2)CN1)[C@H]1CCCc2cccnc21	Cytochrome P450 2D6 (Homo sapiens, UniProt P10635)	<	4.70
OCCN(C[C@H]1Cc2c(cccc2N2CCNCC2)CN1)[C@H]1CCCc2cccnc21	Cytochrome P450 2D6 (Homo sapiens, UniProt P10635)	<	4.70
CN1CCN(c2cccc3c2C[C@H](CN2CCC[C@H]4CCc5cccnc5[C@H]42)NC3)CC1	Cytochrome P450 2D6 (Homo sapiens, UniProt P10635)	<	4.70
CN(C[C@H]1Cc2c(cccc2N2CCNCC2)CN1)[C@H]1CCCc2cccnc21	Cytochrome P450 2D6 (Homo sapiens, UniProt P10635)	<	4.70
CN(C[C@H]1Cc2c(cccc2N2C[C@@H]3C[C@H]2CN3)CN1)[C@H]1CCCc2cccnc21	Cytochrome P450 2D6 (Homo sapiens, UniProt P10635)	<	4.70
CN1CCN(c2cccc3c2C[C@H](CN(C)[C@H]2CCCc4cccnc42)N(C)C3)CC1	Cytochrome P450 2D6 (Homo sapiens, UniProt P10635)	<	4.70
Cc1ccc(CN(C)C[C@H]2Cc3c(cccc3N3CCNCC3)CN2)nc1	Cytochrome P450 2D6 (Homo sapiens, UniProt P10635)	=	4.00
Cc1cnc2c(c1)CCC[C@@H]2N(C)C[C@H]1Cc2c(cccc2N2CCNCC2)CN1	Cytochrome P450 2D6 (Homo sapiens, UniProt P10635)	<	4.70
CCCN(C[C@H]1Cc2c(cccc2N2CCNCC2)CN1)[C@H]1CCCc2cccnc21	Cytochrome P450 2D6 (Homo sapiens, UniProt P10635)	=	4.92
CC(C)N1CCN(c2cccc3c2C[C@H](CN(C)[C@H]2CCCc4cccnc42)NC3)CC1	Cytochrome P450 2D6 (Homo sapiens, UniProt P10635)	=	5.09
c1cnc2c(c1)CCC[C@@H]2N(CC1CC1)C[C@H]1Cc2c(cccc2N2CCNCC2)CN1	Cytochrome P450 2D6 (Homo sapiens, UniProt P10635)	=	5.07
CN1Cc2cccc(N3CCNCC3)c2C[C@@H]1CN(C)[C@H]1CCCc2cccnc21	Cytochrome P450 2D6 (Homo sapiens, UniProt P10635)	<	4.70

---

Listed molecules paired with reported pIC50
target: Cytochrome P450 2D6 (Homo sapiens, UniProt P10635); test: Inhibition of recombinant human CYP2D6 expressed in insect cells microsomes using AMMC as substrate preincubated for 30 mins followed by NADP addition and measured after 45 mins by fluorescence analysis
pIC50: −log10 of the molar value.

Chem Smiles	Result Comparator	pIC50
FC1(F)CCC(CN(C[C@H]2Cc3c(cccc3N3CCNCC3)CN2)[C@H]2CCCc3cccnc32)CC1	=	5.07
CC(C)N(C[C@H]1Cc2c(cccc2N2CCNCC2)CN1)[C@H]1CCCc2cccnc21	<	4.70
CN(C[C@@H]1Cc2c(cccc2N2CCNCC2)CN1)[C@H]1CCCc2cccnc21	<	4.70
C[C@@H]1CN(c2cccc3c2C[C@H](CN(C)[C@H]2CCCc4cccnc42)NC3)C[C@H](C)N1	<	4.70
CN(C[C@H]1Cc2c(cccc2N2CCN(c3ccccn3)CC2)CN1)[C@H]1CCCc2cccnc21	=	5.60

---

Listed molecules paired with reported IC50
target: Muscarinic acetylcholine receptor; assay: Antagonist activity at mAChR in human CCRF-CEM cells assessed as inhibition of acetylcholine-induced calcium release preincubated for 25 mins followed by acetylcholine stimulation and measured for 90 secs by calcium flux assay; format: functional, cell-based

Chem Smiles	Assayed Target	Result Comparator	IC50 (µM)
c1cnc2c(c1)CCC[C@@H]2N(CC1CCCCC1)C[C@H]1Cc2c(cccc2N2CCNCC2)CN1	Muscarinic acetylcholine receptor	>	33.3
CN1CCN(c2cccc3c2C[C@H](CN2CCC[C@H]4CCc5cccnc5[C@H]42)NC3)CC1	Muscarinic acetylcholine receptor	>	16.7
c1cnc2c(c1)CCC[C@@H]2N(CC1CC1)C[C@H]1Cc2c(cccc2N2CCNCC2)CN1	Muscarinic acetylcholine receptor	=	21.6
CN(C[C@H]1Cc2c(cccc2N2CCN(C3COC3)CC2)CN1)[C@H]1CCCc2cccnc21	Muscarinic acetylcholine receptor	>	16.7
CN1CCN(c2cccc3c2C[C@H](CN(C)[C@H]2CCCc4cccnc42)NC3)CC1	Muscarinic acetylcholine receptor	>	33.3
Cc1cccnc1CN(C)C[C@H]1Cc2c(cccc2N2CCNCC2)CN1	Muscarinic acetylcholine receptor	=	11.1
C[C@@H]1CN(c2cccc3c2C[C@H](CN(C)[C@H]2CCCc4cccnc42)NC3)C[C@H](C)N1	Muscarinic acetylcholine receptor	>	33.3
CN(C[C@H]1Cc2c(cccc2N2CCNC(C)(C)C2)CN1)[C@H]1CCCc2cccnc21	Muscarinic acetylcholine receptor	=	17.9
CN(C[C@H]1Cc2c(cccc2N2CCN(c3cccc(C(F)(F)F)c3)CC2)CN1)[C@H]1CCCc2cccnc21	Muscarinic acetylcholine receptor	=	9.25

---

target: Muscarinic acetylcholine receptor; test: Antagonist activity at mAChR in human CCRF-CEM cells assessed as inhibition of acetylcholine-induced calcium release preincubated for 25 mins followed by acetylcholine stimulation and measured for 90 secs by calcium flux assay; assay type: functional, cell-based
# note: boundary value 7 µM maps to NO; IC50 below it maps to YES

Chem Smiles	Assayed Target	Class Name
Cc1cnc2c(c1)CCC[C@@H]2N(C)C[C@H]1Cc2c(cccc2N2CCNCC2)CN1	Muscarinic acetylcholine receptor	NO
CN(C[C@H]1Cc2c(cccc2N2CCN(Cc3ccccn3)CC2)CN1)[C@H]1CCCc2cccnc21	Muscarinic acetylcholine receptor	NO
CC(C)N1CCN(c2cccc3c2C[C@H](CN(C)[C@H]2CCCc4cccnc42)NC3)CC1	Muscarinic acetylcholine receptor	NO
CCN(C[C@H]1Cc2c(cccc2N2CCNCC2)CN1)[C@H]1CCCc2cccnc21	Muscarinic acetylcholine receptor	NO
CN1CCN(c2cccc3c2C[C@H](CN(C)[C@H]2CCCc4cccnc42)N(C)C3)CC1	Muscarinic acetylcholine receptor	NO
Cc1ccc(CN(C)C[C@H]2Cc3c(cccc3N3CCNCC3)CN2)nc1	Muscarinic acetylcholine receptor	NO
CN(C[C@H]1Cc2c(cccc2N2CCN(c3ncccn3)CC2)CN1)[C@H]1CCCc2cccnc21	Muscarinic acetylcholine receptor	YES
CN(C[C@H]1Cc2c(cccc2N2CCN(C3CC3)CC2)CN1)[C@H]1CCCc2cccnc21	Muscarinic acetylcholine receptor	NO
CN(C[C@H]1Cc2c(cccc2N2CCN3CCC[C@H]3C2)CN1)[C@H]1CCCc2cccnc21	Muscarinic acetylcholine receptor	NO
FC1(F)CCC(CN(C[C@H]2Cc3c(cccc3N3CCNCC3)CN2)[C@H]2CCCc3cccnc32)CC1	Muscarinic acetylcholine receptor	NO
CN(C[C@H]1Cc2c(cccc2N2CCN(c3ccccn3)CC2)CN1)[C@H]1CCCc2cccnc21	Muscarinic acetylcholine receptor	YES
CN(C[C@H]1Cc2c(cccc2N2C[C@H]3C[C@@H]2CN3)CN1)[C@H]1CCCc2cccnc21	Muscarinic acetylcholine receptor	NO
CN(C[C@H]1Cc2c(cccc2N2C[C@@H]3C[C@H]2CN3)CN1)[C@H]1CCCc2cccnc21	Muscarinic acetylcholine receptor	NO
C[C@@H]1CN(c2cccc3c2C[C@H](CN(C)[C@H]2CCCc4cccnc42)NC3)C[C@H](C)N1C	Muscarinic acetylcholine receptor	NO
OCCN(C[C@H]1Cc2c(cccc2N2CCNCC2)CN1)[C@H]1CCCc2cccnc21	Muscarinic acetylcholine receptor	NO
CN(C[C@@H]1Cc2c(cccc2N2CCNCC2)CN1)[C@H]1CCCc2cccnc21	Muscarinic acetylcholine receptor	YES
CC(C)N(C[C@H]1Cc2c(cccc2N2CCNCC2)CN1)[C@H]1CCCc2cccnc21	Muscarinic acetylcholine receptor	NO
